Every entry's value here was drawn from PubChem BioAssay (NCI).

Test system: MOLT-4 leukemia
Assay: NCI tumour cell line growth inhibition, 48 h
Form field: TGI (one value per entry).

| COMPOUND | TESTED SYSTEM | TGI |
| --- | --- | --- |
| CCOc1c2ccsc2c(OCC)c2ccsc12 | MOLT-4 leukemia | > 28.5 µM |
| COC(=O)c1c[nH]cc1CCc1c[nH]cc1C(=O)OC | MOLT-4 leukemia | > 100 µM |
| CC(C)=CCC[C@]1(C)CC[C@]2(C)C3CCC(=C(C)C)[C@@H](CCCO)[C@]3(C)CC[C@@]2(C)C1 (stereo partly specified) | MOLT-4 leukemia | > 100 µM |
| NC(=O)NC(=O)c1cnccn1 | MOLT-4 leukemia | > 100 µM |
| CN(C)c1ccc(-c2cc(=O)c3ccccc3[nH]2)cc1 | MOLT-4 leukemia | > 100 µM |
| O=C1NC(=O)C(C(=O)C(=O)Nc2ccc(Br)cc2)C(=O)N1 | MOLT-4 leukemia | > 100 µM |

* * *

Test system: KM12 colon
Assay: NCI tumour cell line growth inhibition, 48 h

| COMPOUND | TESTED SYSTEM | TGI |
| --- | --- | --- |
| Cn1c(=O)oc2cc(C(=O)CSC(=S)N3CCCCCC3)ccc21 | KM12 colon | > 100 µM |
| O=P(c1ccccc1)(c1ccccc1)C1CC=C(c2ccccc2)C2(CCCC2)C1 (stereo unspecified) | KM12 colon | > 100 µM |
| CCCN1C(=O)C/C(=C\C(C)=O)Nc2ccccc21 | KM12 colon | > 100 µM |
| O=C(Cc1nc2ccccc2s1)C(=O)Nc1ccc(Cl)cc1 | KM12 colon | > 100 µM |
| CN(C)CCCNc1c(O)c2c(c(O)c1Cl)C(=O)C=CC2=O | KM12 colon | > 10 µM |
| COc1cc2oc(=O)cc(C)c2cc1[N+](=O)[O-] | KM12 colon | > 57.3 µM |

* * *

System: K-562 leukemia
Test: NCI tumour cell line growth inhibition, 48 h; in the data active means GI50 below about 0.43 µM; inactive means the rest
Outcomes: active, inactive

| STRUCTURE SMILES | CLASS ASSIGNMENT |
| --- | --- |
| OCCN(CCO)N=Nc1ccc(-c2nc3ccccc3[nH]2)cc1 | inactive |
| O=C(/C=C/c1ccco1)c1ccc(Nc2nc(Nc3ccc(F)cc3)nc(Nc3ccc(Cl)cc3)n2)cc1 | inactive |
| Nc1c(C(=O)Nc2ccccc2)sc2nc3c(cc12)CCCCCC3 | active |

* * *

Test system: IGROV1 ovarian
Assay: NCI tumour cell line growth inhibition, 48 h
Where a SMILES comes first, the peptide text is derived from it.

| MOLECULE | TGI |
| --- | --- |
| CC(=O)OCC1OC(On2ccccc2=S)C(OC(C)=O)C(OC(C)=O)C1OC(C)=O (centres undefined) | > 100 µM |
| CC(=O)/C(C=Nc1c(C)n(C)n(-c2ccccc2)c1=O)=C(/C)O | > 100 µM |
| CCCc1c2c([nH]c(=O)c1C)C(=O)c1[nH]c(=O)c(C)c(CCC)c1C2=O | 88.4 µM |
| CC1NC(=O)CNC(=O)CNC(=O)C(Cc2ccc(O)cc2)NC(=O)C(C(C)C)NC(=O)C(C)NC1=O (centres undefined) (cyclo(GGAAVY); configuration not given here) | > 100 µM |
